tested.system: T1, human C5aR (CD88) (human, UniProt P21730 1-350)
T1 sequence (looked up): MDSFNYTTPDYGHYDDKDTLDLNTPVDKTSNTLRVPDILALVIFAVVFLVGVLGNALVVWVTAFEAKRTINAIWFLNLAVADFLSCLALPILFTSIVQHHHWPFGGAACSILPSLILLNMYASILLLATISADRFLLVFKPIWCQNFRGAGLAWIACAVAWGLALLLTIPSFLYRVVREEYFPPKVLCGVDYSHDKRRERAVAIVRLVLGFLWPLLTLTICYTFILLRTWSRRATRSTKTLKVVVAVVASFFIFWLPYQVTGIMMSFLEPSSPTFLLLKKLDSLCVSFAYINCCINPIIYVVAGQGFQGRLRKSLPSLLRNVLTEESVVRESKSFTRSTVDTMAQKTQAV
protocol.summary: cell-based or functional assay
Starred links: 1 amine or outer side, 2 acyl side, 3 side chain; linkers in the order of their positions; H or OH if unused. Positions of bridges follow the written chain, without caps; N, C: chain ends. Non-standard residues stand in square brackets, D forms with d. No end group written: not given here. *: point of attachment. Ebu = Cys(3-picolyl), O=C([C@H](CSCc1cccnc1)N[*:1])[*:2]; XX2 = 4-guanidyl-piperidinyl-alanine; Acetyl(4-pyridyl) = O=C(Cc1ccncc1)*; d(hLeu) = CC(C)CC[C@@H](N)C(=O)O; dCha = N[C@H](CC1CCCCC1)C(=O)O; Nle = CCCC[C@H](N)C(=O)O; Orn = NCCC[C@H](N)C(=O)O; Dab = NCC[C@H](N)C(=O)O
readout.type: IC50 activity group, enzyme release assay

{"binder": "{Acetyl(4-pyridyl)}-F[Orn]P[dCha]W[Nle] (lactam 2-C (inferred)) [Fbi-Phe-[Orn-Pro-cha-Trp-Nle]]", "result": "≤ 200 nM"}
{"binder": "{Ph2‑CH‑CH2‑CO}-[Orn]P[dCha]WF-NH2 [Ph2-CH-CH2-CO-Orn-Pro-cha-Trp-Phe-NH2]", "result": "≤ 2000 nM"}
{"binder": "Ac-A[Orn]P[dCha]WR (lactam 2-C; SMILES CC(=O)N[C@@H](C)C(=O)N[C@H]1CCCNC(=O)[C@H](CCCNC(=N)N)NC(=O)[C@H](Cc2c[nH]c3ccccc23)NC(=O)[C@@H](CC2CCCCC2)NC(=O)[C@@H]2CCCN2C1=O) [Ac-Ala-[Orn-Pro-cha-Trp-Arg]]", "result": "> 2000 nM"}
{"binder": "Ac-F[Orn]P[d(hLeu)]W[Nle] (lactam 2-C (inferred)) [Ac-Phe-[Orn-Pro-hle-Trp-Nle]]", "result": "≤ 50 nM"}
{"binder": "Ac-F[Orn]P[dCha]W[Dab] (lactam (positions not given here); not fully specified (bridges); printed as Ac-Phe-[Orn-Pro-cha-Trp-Dab]) [Ac-Phe-[Orn-Pro-cha-Trp-Dab]]", "result": "≤ 200 nM"}
{"binder": "H-F[Orn]P[d(hLeu)]W[Nle] (lactam 2-C) [H-Phe-[Orn-Pro-hle-Trp-Nle]]", "result": "≤ 50 nM"}

Ask: Answer with the recorded IC50 activity group, enzyme release assay of Ac-F[Orn]P[dCha]W[Ebu] (lactam (positions not given here); not fully specified (bridges); printed as Ac-Phe-[Orn-Pro-cha-Trp-Ebu]) [Ac-Phe-[Orn-Pro-cha-Trp-Ebu]] only.
Reply: ≤ 2000 nM

Ask: Supply measured IC50 activity group, enzyme release assay of Ac-F[Orn]P[dCha]W[XX2] (lactam (positions not given here); not fully specified (bridges); printed as Ac-Phe-[Orn-Pro-cha-Trp-XX2]) [Ac-Phe-[Orn-Pro-cha-Trp-XX2]] in your reply.
Reply: > 2000 nM
